biological target: HOIP PUB domain (aa 1–184); assay: fluorescence polarisation; FITC-Ahx-labeled PIM peptides with purified PUB domains; triplicate
Outcome Measure: pKd
One number for each entry, as −log10 of the molar value.

The substance FITC-Ahx-labeled OTULIN PIM peptide , tested on HOIP PUB domain (aa 1–184), showed pKd of 6.52
